# Assay comment: NCI Yeast Anticancer Drug Screen. Data for the cln2 rad14 strain (AID 165);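 note: 0% = growth equal to vehicle treated cultures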
# Stated conditions: S. cerevisiae cln2 rad14 strain, at 50.0 µM
# Method: Growth inhibition of yeast strains with defined genetic alterations is measured as a screen for potential anti-cancer activity. Selected strains with alterations in DNA damage repair or cell cycle control were exposed to compounds and growth inhibition was measured relative to vehicle treated controls. The strain used in this assay is cln2 rad14
The panel holds about 79,000 compounds, 15% with a hit somewhere; the sample as a whole holds those more often. Activity calls are given as the source filed them. Cut-off read from the data, not from the text of the source: active = growth inhibition above about 70%; inactive = the rest.
Outcomes: true (1) for active, false (0) for inactive

[
  {
    "Compound": "COC(=O)c1cc(/C=C/C(=O)Cc2ccccc2)cn1S(=O)(=O)c1ccccc1",
    "Category": "false (0)"
  },
  {
    "Compound": "CCOCC(=O)N[C@H]1CCc2cc(OC)c(OC)c(OC)c2-c2ccc(OC)c(=O)cc21",
    "Category": "false (0)"
  },
  {
    "Compound": "CC1=C/C(=N\\NC(=O)c2ccc[n+](C)c2)CC(C)(C)C1",
    "Category": "false (0)"
  },
  {
    "Compound": "C[N+]1(C)C2CC(=O)CC1C1CC12 (centres undefined)",
    "Category": "false (0)"
  },
  {
    "Compound": "COc1ccc2ccc3nonc3c2c1",
    "Category": "false (0)"
  },
  {
    "Compound": "C=CCSC(=S)NC",
    "Category": "false (0)"
  },
  {
    "Compound": "C[Si](C)(C)c1ccc(C(N)=O)cc1",
    "Category": "false (0)"
  },
  {
    "Compound": "c1ccc2c(CN3CCCCC3)cccc2c1",
    "Category": "false (0)"
  },
  {
    "Compound": "COc1ccc(Cl)cc1NC(=O)c1cccc([N+](=O)[O-])c1",
    "Category": "false (0)"
  },
  {
    "Compound": "Cc1ccc(C)c(NC(=O)Oc2cc(C)c(Cl)cc2C(C)C)c1",
    "Category": "true (1)"
  },
  {
    "Compound": "O=C1OC([C@H](O)c2cccnc2)c2ccccc21 (some centres undefined)",
    "Category": "false (0)"
  },
  {
    "Compound": "CCN(CC)c1ccc(/C=C2\\SC(=S)NC2=O)cc1",
    "Category": "false (0)"
  },
  {
    "Compound": "CCC(C)(C(=O)O)c1ccccc1 (centres undefined)",
    "Category": "false (0)"
  },
  {
    "Compound": "NC(=O)c1nc2ccccc2nc1Nc1ccc(Cl)cc1Cl",
    "Category": "false (0)"
  },
  {
    "Compound": "CCC(COC(=O)CC[C@@H](NC(=O)C(C)NC(=O)C(C)OC1C(O)C(CO)OC(OCc2ccccc2)C1NC(C)=O)C(N)=O)NC1c2ccccc2Nc2cccc([N+](=O)[O-])c21 (some centres undefined)",
    "Category": "false (0)"
  },
  {
    "Compound": "CN(C)CCCNc1ccc2nnn3c4ccc(O)cc4c(=O)c1c23",
    "Category": "false (0)"
  },
  {
    "Compound": "N#CC(C#N)=CNc1cccc(Cl)c1",
    "Category": "false (0)"
  },
  {
    "Compound": "CCC(c1ccccc1)c1cc(C(C)(C)C)cc(C(C)(C)C)c1O (centres undefined)",
    "Category": "false (0)"
  },
  {
    "Compound": "C=C(C)[C@@]1(OC(=O)c2cc([N+](=O)[O-])cc([N+](=O)[O-])c2)C[C@@H]2CCCC[C@@H]21",
    "Category": "false (0)"
  },
  {
    "Compound": "COc1cc(CCCCC(=O)O)ccc1OC(=O)c1ccccc1",
    "Category": "false (0)"
  },
  {
    "Compound": "CC(=O)OCCCC(=O)Nc1cc([N+](=O)[O-])ccc1OCc1ccccc1",
    "Category": "false (0)"
  },
  {
    "Compound": "Cc1ccc2nccc(C)c2c1",
    "Category": "false (0)"
  },
  {
    "Compound": "NC(=O)C(O)(c1ccc(Br)cc1)C(Cl)Cl (centres undefined)",
    "Category": "false (0)"
  },
  {
    "Compound": "NC(N)=NCCCc1ccccc1",
    "Category": "false (0)"
  }
]
